# SYSTEM_NAME: COX-2 (UniProt P35354)
# MEASUREMENT_NOTES: Fast assay for COX-2 activity (PGE2 ELISA)
# Type: biochemical, human or murine
# TEST_SETTINGS: fast assay: 10 min pre-incubation at 25° C., reaction stopped after two minutes, pH 7.5
pIC50: −log10 of the molar value.
OBSERVED_PROPERTY: pIC50

A: CS(=O)(=O)c1ccc2c(c1)C=C(C(=O)O)C(C(F)(F)F)O2 (stereo not drawn)
B: CC(C)(C)c1cc2c(c(C(C)(C)C)c1)OC(C(F)(F)F)C(C(=O)O)=C2 (stereo not drawn)
Req: Pick one, A or B : lowest reported pIC50. Output the label that corresponds to your choice.
Resp: A

---

# SYSTEM_NAME: COX-2 (UniProt P35354)
# MEASUREMENT_NOTES: Assay for COX-2 activity (PGE2 ELISA)
# TEST_SETTINGS: read-out: COX-2 IC50; 10–20 minutes pre-incubation, reaction stopped after ten minutes, pH 8.0
pIC50: −log10 of the molar value.
OBSERVED_PROPERTY: pIC50

Please review the entries below; each comes with its answer.
>  <COMPOUND>
O=C(O)C1=Cc2ccc(Oc3ccccc3)cc2OC1C(F)(F)F (centres unmarked)

>  <pIC50>
5.70

$$$$
>  <COMPOUND>
O=C(O)C1=Cc2cc(C(=O)c3ccccc3)ccc2OC1C(F)(F)F (centres unmarked)

>  <pIC50>
6.52

$$$$
>  <COMPOUND>
O=C(O)C1=Cc2cc(Cl)c(Oc3ccc4cc(Br)ccc4c3)cc2OC1C(F)(F)F (centres unmarked)

>  <pIC50>
5.92

$$$$
>  <COMPOUND>
O=C(O)C1=Cc2cc(Cl)c(Oc3cccnc3)cc2OC1C(F)(F)F (centres unmarked)

>  <pIC50>
7.00

$$$$
>  <COMPOUND>
O=C(O)C1=Cc2cc(Cl)c(-c3ccccc3)cc2OC1C(F)(F)F (centres unmarked)

>  <pIC50>
4.80

$$$$
>  <COMPOUND>
CC(C)(CO)c1cc2c(cc1Cl)C=C(C(=O)O)C(C(F)(F)F)O2 (centres unmarked)

>  <pIC50>
4.83

$$$$
>  <COMPOUND>
O=C(O)C1=Cc2cc(C(=O)c3ccc(Cl)cc3)ccc2OC1C(F)(F)F (centres unmarked)

>  <pIC50>
7.00

$$$$
>  <COMPOUND>
O=C(O)C1=Cc2cc(Cl)c(Oc3ccc(OC(F)(F)F)cc3)cc2OC1C(F)(F)F (centres unmarked)

>  <pIC50>
4.47

$$$$
>  <COMPOUND>
O=C(O)C1=Cc2cc(C#Cc3ccccc3)ccc2NC1C(F)(F)F (centres unmarked)

>  <pIC50>
5.62

$$$$
>  <COMPOUND>
O=C(O)C1=Cc2cc(Oc3ccc(C(F)(F)F)cc3)cc(Cl)c2OC1C(F)(F)F (centres unmarked)

>  <pIC50>
6.70

$$$$

I: Cc1cccc(C)c1Oc1cc2c(cc1Cl)C=C(C(=O)O)C(C(F)(F)F)O2 (centres unmarked)
II: O=C(O)C1=Cc2cc(Cl)cc(Br)c2OC1C(F)(F)F (centres unmarked)
III: CC(C)(CO)c1ccc2c(c1)OC(C(F)(F)F)C(C(=O)O)=C2 (centres unmarked)
IV: O=C(O)C1=Cc2cc(Cl)c(Oc3cccc(Cl)c3)cc2OC1C(F)(F)F (centres unmarked)
Req: Hi! Can you put these in order of pIC50, lowest number first? Respond with the label ranking, as requested.
Resp: II, III, IV, I
(II: 3.87, III: 4.80, IV: 5.02, I: 6.30)

---

OBSERVED_PROPERTY: melting point

Consider the following illustrative entries.
>  <COMPOUND>
O=C(O)C1=Cc2cc(Cl)c(Oc3ccc(Cl)c(F)c3)cc2OC1C(F)(F)F (stereo not shown) [Example 205]

>  <melting point>
206.8 to 207.4 °C

$$$$
>  <COMPOUND>
O=C(O)C1=Cc2cc(Oc3ccc(C(F)(F)F)cc3)ccc2OC1C(F)(F)F (stereo not shown) [Example 101]

>  <melting point>
153.5 to 154.4 °C

$$$$

Req: Which melting point value belongs to O=C(O)C1=Cc2ccc(-c3ccccc3)cc2OC1C(F)(F)F (stereo not shown) [Example 26] ?
Resp: 209.4 to 211.7 °C

Req: Same read-out for O=C(O)C1=Cc2cc(Cl)ccc2N(Cc2ccc([N+](=O)[O-])cc2)C1C(F)(F)F (stereo not shown) [Example 170] ?
Resp: 225 to 228 °C

Req: Record: O=C(O)C1=Cc2ccccc2OC1C(F)(F)F (stereo not shown) [Example 10]
Resp: 152.2 to 153.3 °C

Req: What do we get for Cc1cc(Br)c2c(c1)C=C(C(=O)O)C(C(F)(F)F)O2 (stereo not shown) [Example 44] ?
Resp: 237 to 238 °C

Req: Note, next up: COc1cccc2c1C=C(C(=O)O)C(C(F)(F)F)O2 (stereo not shown) [Example 95]
Resp: 204.5 to 206.7 °C

Req: Another compound to look at: O=C(O)C1=Cc2cc(Cl)c(Oc3cccnc3)cc2OC1C(F)(F)F (stereo not shown) [Example 201]
Resp: 237.8 to 238.8 °C

Req: What about COc1cc(Cl)c2c(c1)C=C(C(=O)O)C(C(F)(F)F)O2 (stereo not shown) [Example 40] ?
Resp: 204.5 to 206.9 °C

Req: Entry CN(C)S(=O)(=O)c1ccc2c(c1)C=C(C(=O)O)C(C(F)(F)F)O2 (stereo not shown) [Example 50] please
Resp: 201.2 to 202.5 °C

Req: Another compound to look at: CC(C)(C)CC(=O)c1ccc2c(c1)C=C(C(=O)O)C(C(F)(F)F)O2 (stereo not shown) [Example 60]
Resp: 198 to 200 °C

Req: Same again, this time with O=C(O)C1=Cc2cc(S(=O)(=O)NCc3ccco3)ccc2OC1C(F)(F)F (stereo not shown) [Example 69]
Resp: 170 to 173 °C

Req: And the next one, O=C(O)C1=Cc2cc(Br)cc(Cl)c2OC1C(F)(F)F (stereo not shown) [Example 42] ?
Resp: 220.7 to 221.7 °C

Req: How about O=C(O)C1=Cc2cc(Cl)cnc2NC1C(F)(F)F (stereo not shown) [Example 174] ?
Resp: 287.4 to 288.4 °C

Req: Also N#Cc1cc(Cl)cc2c1OC(C(F)(F)F)C(C(=O)O)=C2 (stereo not shown) [Example 107] , if possible.
Resp: 238.1 to 239.7 °C

Req: And then CC(C)c1cccc2c1OC(C(F)(F)F)C(C(=O)O)=C2 (stereo not shown) [Example 102] , what is it?
Resp: 210.5 to 211.5 °C

Req: Can you handle O=C(O)C1=Cc2cc(-c3ccc(Cl)s3)ccc2OC1C(F)(F)F (stereo not shown) [Example 135] next?
Resp: 205 to 206 °C

Req: Try this compound too: C#Cc1ccc2c(c1)C=C(C(=O)O)C(C(F)(F)F)N2 (stereo not shown) [Example 210]
Resp: 259 to 268 °C

Req: Next entry: O=C(O)C1=Cc2cc(Cl)c(Oc3ccccc3)cc2OC1C(F)(F)F (stereo not shown) [Example 177]
Resp: 220.2 to 221.8 °C

Req: # iterate: O=C(O)C1=Cc2ccc(C(F)(F)F)cc2OC1C(F)(F)F (stereo not shown) [Example 4]
Resp: 190.3 to 193.5 °C

---

Each record here notes measured melting point.

Please review the entries below; each comes with its answer.
>  <COMPOUND>
Cc1ccc2c(c1)SC(C(F)(F)F)C(C(=O)O)=C2 (centres unmarked)

>  <ENDPOINT_VALUE>
186.6 to 191.9 °C

$$$$
>  <COMPOUND>
O=C(O)C1=Cc2cc(C#Cc3ccccc3)ccc2NC1C(F)(F)F (centres unmarked)

>  <ENDPOINT_VALUE>
218 to 219 °C

$$$$
>  <COMPOUND>
C=CC1=C(C(=O)O)C(C(F)(F)F)Oc2ccc(Cl)cc21 (centres unmarked)

>  <ENDPOINT_VALUE>
143 to 145 °C

$$$$
>  <COMPOUND>
C=Cc1cc(Cl)cc2c1OC(C(F)(F)F)C(C(=O)O)=C2 (centres unmarked)

>  <ENDPOINT_VALUE>
183.2 to 185.8 °C

$$$$

Kindly review the next compound as well.
Req: # lookup: melting point of O=C(O)C1=Cc2cccc(-c3ccccc3)c2OC1C(F)(F)F (centres unmarked)
Resp: 171.6 to 175 °C

---

# SYSTEM_NAME: COX-2 (UniProt P35354)
# MEASUREMENT_NOTES: Fast assay for COX-2 activity (PGE2 ELISA)
# Type: biochemical, human or murine
# TEST_SETTINGS: fast assay: 10 min pre-incubation at 25° C., reaction stopped after two minutes, pH 7.5
pIC50: −log10 of the molar value.
OBSERVED_PROPERTY: pIC50

>  <COMPOUND>
O=C(O)C1=Cc2cc(Cl)cc(-c3ccccc3)c2OC1C(F)(F)F (centres unmarked)

>  <SYSTEM_NAME>
COX-2 (UniProt P35354)

>  <pIC50>
6.70

$$$$

P: O=C(O)C1=Cc2c(F)ccc(Br)c2OC1C(F)(F)F (centres unmarked)
Q: O=C(O)C1=Cc2cc(C(=O)Cc3ccccc3)ccc2OC1C(F)(F)F (centres unmarked)
R: O=C(O)C1=Cc2cc(Cl)c([S+]([O-])c3ccc(Cl)cc3)cc2OC1C(F)(F)F (centres unmarked)
S: O=C(O)C1=Cc2cc(S(=O)(=O)N3CCOCC3)ccc2OC1C(F)(F)F (centres unmarked)
Req: Order the items by recorded pIC50; the first position goes to the largest value. Record the ranking as a list of labels in the requested order.
Resp: P, R, S, Q
(P: 6.70, R: 5.92, S: 5.10, Q: 4.37)
